- Tested on: Vero cell line
- assay name: Cytotoxicity on Vero cells (MTT)
- Assay type: cell-based, monkey
- experimental parameters: Vero cells, 48 h, MTT; read-out: Cytotoxicity on Vero Cells IC50 ± SEM
Kindly supply the reported pIC50 values for the records listed here.
Numbers only, as −log10 of the molar value.

Below, 3 compounds whose answers are already recorded.
>  <compound>
C[C@@H]1CCC2[C@@H](C)[C@@H](OCCCCn3cc[n+](Cc4ccccc4)[c]3[Au-][c]3n(CCCCO[C@H]4O[C@@H]5O[C@@]6(C)CCC7[C@H](C)CCC([C@H]4C)[C@]75OO6)cc[n+]3Cc3ccccc3)O[C@@H]3O[C@@]4(C)CCC1[C@@]23OO4.[Cl-] (stereo partly drawn) [Aubis(4-Bn)]

>  <tested system>
Vero cell line

>  <pIC50>
6.15

$$$$
>  <compound>
C[C@@H]1CCC2[C@@H](C)[C@@H](OCCCn3cc[n+](-c4ccc5ccccc5n4)[c]3[Au-][c]3n(CCCO[C@H]4O[C@@H]5O[C@@]6(C)CCC7[C@H](C)CCC([C@H]4C)[C@]75OO6)cc[n+]3-c3ccc4ccccc4n3)O[C@@H]3O[C@@]4(C)CCC1[C@@]23OO4.[Cl-] (stereo partly drawn) [Aubis(3-Quin)]

>  <tested system>
Vero cell line

>  <pIC50>
5.92

$$$$
>  <compound>
CC(C)[n+]1ccn(CCCO[C@H]2O[C@@H]3O[C@@]4(C)CCC5[C@H](C)CCC([C@H]2C)[C@]53OO4)[c]1[Au-][c]1n(CCCO[C@H]2O[C@@H]3O[C@@]4(C)CCC5[C@H](C)CCC([C@H]2C)[C@]53OO4)cc[n+]1C(C)C.[Cl-] (stereo partly drawn) [Aubis(3-iPr)]

>  <tested system>
Vero cell line

>  <pIC50>
6.15

$$$$

For each of the compounds below, note its pIC50.
1. Cc1cc(C)c(-[n+]2ccn(CCCCO[C@H]3O[C@@H]4O[C@@]5(C)CCC6[C@H](C)CCC([C@H]3C)[C@]64OO5)[c]2[Au-][c]2n(CCCCO[C@H]3O[C@@H]4O[C@@]5(C)CCC6[C@H](C)CCC([C@H]3C)[C@]64OO5)cc[n+]2-c2c(C)cc(C)cc2C)c(C)c1.[Cl-] (stereo partly drawn) [Aubis(4-Mes)]
2. C[C@@H]1CCC2[C@@H](C)[C@@H](OCCCCCn3cc[n+](C)[c]3[Au-][c]3n(CCCCCO[C@H]4O[C@@H]5O[C@@]6(C)CCC7[C@H](C)CCC([C@H]4C)[C@]75OO6)cc[n+]3C)O[C@@H]3O[C@@]4(C)CCC1[C@@]23OO4.[Cl-] (stereo partly drawn) [Aubis(5-Me)]
3. C[C@@H]1CCC2[C@@H](C)[C@@H](OCCCCn3cc[n+](C)[c]3[Au-][c]3n(CCCCO[C@H]4O[C@@H]5O[C@@]6(C)CCC7[C@H](C)CCC([C@H]4C)[C@]75OO6)cc[n+]3C)O[C@@H]3O[C@@]4(C)CCC1[C@@]23OO4.[Cl-] (stereo partly drawn) [Aubis(4-Me)]

6.15
6.00
6.10

From: paper PMC7356589
